MEASURED TARGET: UniProtKB P25025
Sequence (P25025 whole entry): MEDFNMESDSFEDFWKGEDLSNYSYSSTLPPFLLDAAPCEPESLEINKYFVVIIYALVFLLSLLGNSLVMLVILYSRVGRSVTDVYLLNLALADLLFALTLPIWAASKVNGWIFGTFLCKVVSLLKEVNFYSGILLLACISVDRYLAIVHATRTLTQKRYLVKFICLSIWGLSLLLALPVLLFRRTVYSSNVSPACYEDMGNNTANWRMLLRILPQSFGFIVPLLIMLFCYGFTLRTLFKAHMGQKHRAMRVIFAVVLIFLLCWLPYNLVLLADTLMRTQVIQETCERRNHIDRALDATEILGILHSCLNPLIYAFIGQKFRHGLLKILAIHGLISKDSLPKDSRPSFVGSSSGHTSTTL
PROCEDURE DETAILS: Antagonist activity at CXCR2 in human PMNs assessed as inhibition of CXCL1-induced intracellular Ca2+ release by fluorescence based calcium flux assay
Assay type: functional, cell-based
List of IC50 values.

Below, each entry is followed by its recorded IC50 result.
CCOP(=O)(CSc1ccc(C(=O)Nc2ccc(F)cc2)cn1)OCC: > 10 µM
O=C(Nc1ccc(F)cc1)c1ccc(SCc2ccccc2-c2cccs2)nc1: > 5 µM

## Input What does the data say about its IC50? Entry: O=C(Nc1ccc(F)cc1)c1ccc(SCC2CCCCO2)nc1 (stereo unspecified)
## Output > 5 µM

## Input Look up IC50: `O=C(Nc1ccc(F)cc1)c1ccc(SCC2CCOCC2)nc1`
## Output > 5 µM

## Input # get_value(readout='IC50', item= `Cc1cc(CSc2ccc(C(=O)Nc3ccc(F)cc3)cn2)no1` )
## Output > 5 µM

## Input Looking for the measured IC50 of `O=C(Nc1ccc(F)cc1)c1ccc(SCc2cccc(-n3cccc3)c2)nc1` , can you help?
## Output > 10 µM

## Input So what's the measured IC50 for this one? `Cc1nn(-c2ccccc2)nc1CSc1ccc(C(=O)Nc2ccc(F)cc2)cn1`
## Output > 5 µM

## Input Entry `O=C(Nc1ccc(F)cc1)c1ccc(SCc2ccc(C(F)(F)F)o2)nc1` has what IC50?
## Output > 5 µM

## Input May I ask what IC50 has been recorded for `O=C(Nc1ccc(F)cc1)c1ccc(SCc2ccc([N+](=O)[O-])cc2)nc1` ?
## Output > 5 µM

## Input Would you mind telling me what IC50 value was observed for O=C(Nc1ccc(F)cc1)c1ccc(SC2CCOC2=O)nc1 (stereo unspecified) ?
## Output > 5 µM

## Input Value lookup for IC50; key = `O=C(Nc1ccc(F)cc1)c1ccc(SCc2ccccc2O)nc1`
## Output 0.277 µM

---

MEASURED TARGET: C-X-C chemokine receptor type 2 (Homo sapiens, UniProt P25025)
PROCEDURE DETAILS: Antagonist activity at CXCR2 in human PMNs assessed as inhibition of CXCL1-induced intracellular Ca2+ release by fluorescence based calcium flux assay
Format: functional, cell-based
pIC50: −log10 of the molar value.
RECORDED METRIC: pIC50

These solved cases illustrate the format of a correct answer.
Cc1n[nH]c(C)c1CCSc1ccc(C(=O)Nc2ccc(F)cc2)cn1: < 5.30
O=C(O)c1ccc(CSc2ccc(C(=O)Nc3ccc(F)cc3)cn2)cc1: < 5.00
O=C(Nc1ccc(F)cc1)c1ccc(SCc2ccc(-n3cccc3)cc2)nc1: < 5.00
O=C(Nc1ccc(-c2nn[nH]n2)cc1)c1ccc(SCc2ccccc2B(O)O)nc1: < 5.00
O=C(Nc1ccc(F)cc1)c1ccc(SCc2cccc(OC(F)(F)F)c2)nc1: < 5.00

## Input What pIC50 value was documented for this compound, `O=C(Nc1ccc(F)cc1)c1ccc(SCc2ccncc2)nc1` ?
## Output < 5.30

## Input What does the record list as pIC50 for `O=C(O)c1ccc(NC(=O)c2ccc(SCc3ccccc3B(O)O)nc2)cc1` ?
## Output < 5.00

## Input Report pIC50 for `O=C(O)CSc1ccc(C(=O)Nc2ccc(F)cc2)cn1` please.
## Output < 5.30

## Input Recorded pIC50 of `O=C(Nc1ccc(F)cc1)c1ccc(SCc2ccc(OC(F)(F)F)cc2)nc1` , please.
## Output < 5.00

## Input Entry `COC(=O)c1cccc(CSc2ccc(C(=O)Nc3ccc(F)cc3)cn2)c1` has what pIC50?
## Output < 5.30

## Input What does the data say about its pIC50? Entry: `Cc1nc(-c2ccc(C(F)(F)F)cc2)sc1CSc1ccc(C(=O)Nc2ccc(F)cc2)cn1`
## Output < 5.00

## Input Requested read-out: pIC50. Entry: `COC(=O)c1ccc(CSc2ccc(C(=O)Nc3ccc(F)cc3)cn2)cc1`
## Output < 5.00

## Input Given the entry `O=C(Nc1ccc(F)cc1)c1ccc(SCS(=O)(=O)c2ccccc2)nc1` , report its measured pIC50.
## Output < 5.30

## Input // query pIC50 value for entry `Cc1nc(-c2ccccc2)sc1CSc1ccc(C(=O)Nc2ccc(F)cc2)cn1`
## Output < 5.30

## Input Return reported pIC50; argument: `Cc1noc(-c2ccccc2)c1CSc1ccc(C(=O)Nc2ccc(F)cc2)cn1`
## Output < 5.00

## Input // lookup pIC50 for `Cc1onc(-c2ccccc2)c1CSc1ccc(C(=O)Nc2ccc(F)cc2)cn1`
## Output < 5.30

## Input Please report the recorded pIC50 for `Cc1nc(-c2ccc(CSc3ccc(C(=O)Nc4ccc(F)cc4)cn3)cc2)cs1` .
## Output < 5.00

## Input Which pIC50 is reported for this compound? `O=C(Nc1ccc(F)cc1)c1ccc(Sc2ccccc2)nc1`
## Output < 5.00

## Input Given the entry `O=C(Nc1ccc(F)cc1)c1ccc(SCc2ccc([N+](=O)[O-])o2)nc1` , report its measured pIC50.
## Output < 5.30

## Input Report pIC50 for `O=C(Nc1ccc(F)cc1)c1ccc(SCC2CCN(C(=O)OCc3ccccc3)CC2)nc1` please.
## Output < 5.00

## Input // returns reported pIC50 for input `O=C(Nc1ccc(F)cc1)c1ccc(SCc2ccc(-n3cncn3)cc2)nc1`
## Output < 5.00

---

MEASURED TARGET: Platelet-activating factor receptor (Homo sapiens)
Sequence (P25105 whole entry): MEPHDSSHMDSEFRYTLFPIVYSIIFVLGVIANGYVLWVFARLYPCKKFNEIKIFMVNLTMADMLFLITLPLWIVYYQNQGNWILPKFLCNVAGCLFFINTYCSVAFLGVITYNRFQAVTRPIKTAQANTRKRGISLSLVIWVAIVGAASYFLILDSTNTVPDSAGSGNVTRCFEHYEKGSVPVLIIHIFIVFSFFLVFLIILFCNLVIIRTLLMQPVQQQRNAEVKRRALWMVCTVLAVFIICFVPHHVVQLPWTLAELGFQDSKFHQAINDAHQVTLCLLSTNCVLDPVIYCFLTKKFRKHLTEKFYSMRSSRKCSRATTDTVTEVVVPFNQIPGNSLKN
PROCEDURE DETAILS: Antagonist activity at platelet-activating factor receptor in human PMNs assessed as inhibition of PAF-induced intracellular Ca2+ release by fluorescence based calcium flux assay
RECORDED METRIC: IC50

## Input Query: IC50; subject: `O=C(Nc1ccc(F)cc1)c1ccc(SCc2ccccc2B(O)O)nc1`
## Output > 5 µM

---

MEASURED TARGET: C-X-C chemokine receptor type 2 (Homo sapiens)
PROCEDURE DETAILS: Antagonist activity at human CXCR2 expressed in HEK293 cells assessed as inhibition of […]-induced [35S]GTPgammaS binding after 60 mins
Format: functional, cell-based
RECORDED METRIC: pIC50
Please report pIC50 as the negative decimal logarithm of the molar concentration, giving only the number.

## Input Suppose we examine the compound `O=C(Nc1ccc(F)cc1)c1ccc(SCc2ccccc2B(O)O)nc1` ; what pIC50 value has been reported?
## Output 7.22
